Numbers sourced from patent EP2611847B1.

# method_notes: physchem
# Format: physicochemical
# study_conditions: water, thermodynamic from solid
measure_name: solubility thermodynamic at 24 h (µg/mL)
Answer format: numeric, µg/mL implied, no suffix.

Please give the documented solubility thermodynamic at 24 h of `CN1C(C(=O)Nc2ccccn2)=C(O)c2ccccc2S1(=O)=O`
21
